Biological target: Beta-2 adrenergic receptor (Homo sapiens)
Sequence (P07550 whole entry): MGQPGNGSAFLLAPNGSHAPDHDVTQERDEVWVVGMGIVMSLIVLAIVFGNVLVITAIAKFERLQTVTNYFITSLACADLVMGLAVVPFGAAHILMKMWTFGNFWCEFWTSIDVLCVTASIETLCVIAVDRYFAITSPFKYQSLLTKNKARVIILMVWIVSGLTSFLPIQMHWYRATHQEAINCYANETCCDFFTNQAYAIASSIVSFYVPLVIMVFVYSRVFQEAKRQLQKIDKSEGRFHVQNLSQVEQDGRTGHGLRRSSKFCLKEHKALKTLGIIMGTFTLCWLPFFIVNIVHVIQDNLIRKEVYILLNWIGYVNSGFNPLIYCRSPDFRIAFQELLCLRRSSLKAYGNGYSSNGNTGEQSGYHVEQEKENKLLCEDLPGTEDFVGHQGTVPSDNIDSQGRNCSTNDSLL
assay readout: Ki (nM)
One number for each entry, in nM.

### Prompt Tell us which Ki value is on record for Oc1cc2c(cc1O)[C@H]1c3ccccc3CN[C@@H]1CC2 [DIHYDREXIDINE]
### Response 1200

###

Molecular target: 5-hydroxytryptamine receptor 2A (Bos taurus, UniProt Q75Z89)
Sequence (Q75Z89 whole entry): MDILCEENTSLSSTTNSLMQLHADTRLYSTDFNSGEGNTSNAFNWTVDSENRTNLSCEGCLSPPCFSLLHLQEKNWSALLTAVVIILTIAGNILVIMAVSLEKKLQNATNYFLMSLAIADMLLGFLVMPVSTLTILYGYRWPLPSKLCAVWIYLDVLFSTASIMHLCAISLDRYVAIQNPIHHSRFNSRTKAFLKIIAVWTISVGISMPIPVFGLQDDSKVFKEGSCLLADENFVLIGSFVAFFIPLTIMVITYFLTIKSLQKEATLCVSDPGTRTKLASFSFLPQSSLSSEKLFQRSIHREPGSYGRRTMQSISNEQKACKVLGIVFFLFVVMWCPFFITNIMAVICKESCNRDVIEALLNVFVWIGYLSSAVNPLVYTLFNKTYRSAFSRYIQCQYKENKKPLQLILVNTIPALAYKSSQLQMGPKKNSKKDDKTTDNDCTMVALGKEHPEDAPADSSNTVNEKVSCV
pKi: −log10 of the molar value.
assay readout: pKi

### Prompt Specify pKi for Oc1cc2c(cc1O)[C@H]1c3ccccc3CN[C@@H]1CC2 [DIHYDREXIDINE] and stop.
### Response < 5.52

###

Molecular target: UniProt Q64264
Sequence (Q64264 whole entry): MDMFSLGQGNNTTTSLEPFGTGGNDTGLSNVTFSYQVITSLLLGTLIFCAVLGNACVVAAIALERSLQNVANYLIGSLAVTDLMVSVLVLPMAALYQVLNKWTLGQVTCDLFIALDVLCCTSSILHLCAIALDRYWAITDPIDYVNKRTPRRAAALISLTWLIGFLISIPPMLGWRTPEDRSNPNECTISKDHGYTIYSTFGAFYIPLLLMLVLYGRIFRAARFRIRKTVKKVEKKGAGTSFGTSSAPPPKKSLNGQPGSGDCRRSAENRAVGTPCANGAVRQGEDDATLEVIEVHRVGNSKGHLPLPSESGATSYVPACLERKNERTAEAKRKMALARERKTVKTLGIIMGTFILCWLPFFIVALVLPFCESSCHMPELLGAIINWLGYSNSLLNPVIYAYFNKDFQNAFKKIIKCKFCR
assay readout: Ki

### Prompt Give Ki for Oc1cc2c(cc1O)[C@H]1c3ccccc3CN[C@@H]1CC2 [DIHYDREXIDINE]
### Response > 3 µM
